System: SK-MEL-28 melanoma
Test: NCI-60 one-dose screen, 48 h (100 = growth as untreated, 0 = no growth, -100 = all killed)
Details: 10 µM unless noted
About 83,000 compounds went through this panel and 20% of them were active in at least one assay; those are over-represented in the sample as a whole.
parameter_measured: growth (%)
# number only, unit % dropped from output

Record excerpt, results attached:
compound | growth / %
O=C(Nc1cccc(-n2ccc3c(NC(=O)c4ccccc4)nccc32)c1)c1cc(N2CCOCC2)cc(C(F)(F)F)c1 | 38
Nc1ncnc2c1ccn2-c1cccc(NC(=O)c2cccc(C(F)(F)F)c2)c1 | 85.1
CC(C(C(=O)N1CCCCC1)N1CCCCC1)N1CCCCC1 (stereo not given) | 107
COc1cc(NC(C)CCCN2C(=O)c3ccccc3C2=O)c2nccc(C)c2c1OC (stereo not given) | 113

Field: next compound
Quick one: growth for Nc1nc(Cl)cc(NCc2ccc(CNc3cc(Cl)nc(N)n3)cc2)n1 ?
120

----------
Test system: K-562 leukemia
Assay: NCI-60 one-dose screen, 48 h (100 = growth as untreated, 0 = no growth, -100 = all killed)
Settings: 10 µM unless noted
The panel holds about 83,000 compounds, 20% with a hit somewhere; the sample as a whole holds those more often.
Each record here notes measured growth.
Give just the number in %; leave the unit off.

Study these solved cases before continuing.
compound | growth / %
CCN(CC)CCNCC(O)Cc1ccc(OC)cc1 (stereo not drawn) | 105
COc1ccc(OCC(O)CN2CCN(c3ccc(Cl)cc3)CC2)cc1 (stereo not drawn) | 105
CN1C(=O)C2(NN=C(c3cccc4ccccc34)S2)c2ccccc21 (stereo not drawn) | 11.8
Nn1c(SCC(=O)Nc2cc(Cl)c(Cl)cc2Cl)nnc1-c1cc(F)c(Cl)cc1Cl | 90.2
CCC1S/C(=N\N=C(/C)c2cc3ccccc3o2)N(c2ccccc2)C1=O (stereo not drawn) | 79.8

Entry under review: Nc1nc(-c2cc3c(cc2Cl)NC(=O)/C3=C/c2ccccc2)cs1 . Reported growth?
3.89

And the next one, COC1=C(OC)C(=O)C=CC1=O ?
7.24

Input Oc1ccccc1/C=N/c1ccccn1
109

How about COc1cc(NS(C)(=O)=O)ccc1Cc1c2ccccc2nc2ccccc12 ?
18.2

Likewise for COCCNC(C(=O)c1ccccc1)c1ccccc1 (stereo not drawn) ?
103

Follow-up entry: Cc1cc[n+](CCCC[n+]2ccc(C)cc2)cc1
109

Subsequent entry: COc1cc(Br)c(-c2nc(-c3ccccc3)c(-c3ccccc3)n2Cc2ccccc2)cc1OC
31.5

Entry COC(=O)c1oc2c(C(C)=O)c(OCCCN(C)C)ccc2c1C please
73.3

// query: O=C(Nc1ccc(-n2ccc3c(NC(=O)c4ccccc4)ncnc32)cc1)Nc1cccc(Cl)c1Cl
12.5

----------
Test system: NCI-H226 lung
Experiment: NCI-60 one-dose screen, 48 h
Conditions: 10 µM unless noted
This is part of a sample that, as a whole, favours compounds with a hit. Of some 83,000 tested, about 20% had one in any assay. The source made the active and inactive calls. How the source made its calls: active means growth percent below 10; inactive means the rest.
// classify into active, inactive

Answered cases to consult:
molecule | class_assignment
CSc1ccc(C(=O)C[n+]2cccc(C)c2)cc1 | inactive
O=C(Cn1c2ccccc2c2ccncc21)N/N=C/c1c[nH]c2ccccc12 | inactive
COc1ccc(CCNC=O)cc1OC | inactive
CCOC(=O)NNc1nncc2ccccc12 | inactive

Check the results log: what was the call for CCN(CC)CCNC(=O)c1c(C)[nH]c(/C=C2\C(=O)Nc3cc(NC(=O)NC(=O)c4ccc(OC)cc4F)ccc32)c1C ?
inactive

Now consider CC(C)(c1ccc(OCC(O)CNCc2ccco2)cc1)c1ccc(OCC(O)CNCc2ccco2)cc1 (stereo unspecified) .
inactive

Quick one: CCCCCCCCN(CCCCCCCC)CC(O)c1cc(-c2ccccc2)nc2ccc(OC)cc12 (stereo unspecified)
inactive

Likewise for C=C1C(=O)O[C@H]2[C@H]1CC/C(COC(=O)c1ccccc1)=C\CC[C@@]1(C)O[C@@H]21 ?
active

// query: COc1ccc(C2=NN(C(=O)COc3ccc(Cl)cc3)C(O)(c3cc(F)c(Cl)cc3Cl)C2)cc1 (stereo unspecified)
inactive

Again, but for C/C(=N/NC(=O)Cn1c2ccccc2c2ccncc21)c1cccs1
inactive

Now try Cc1nc(N)nc(SCc2ccccc2)c1Br .
inactive

How about this molecule: COc1cc(NS(=O)(=O)c2ccc(N)cc2)ncn1
inactive

Request: CCc1cccc(-c2ccccc2)c1
inactive

Same for CCNc1cc(S(=O)(=O)O)ccc1C
inactive

----------
Test system: KM12 colon
Experiment: NCI-60 one-dose screen, 48 h (100 = growth as untreated, 0 = no growth, -100 = all killed)
Conditions: 10 µM unless noted
The panel holds about 83,000 compounds, 20% with a hit somewhere; the sample as a whole holds those more often.
List of growth values.
Give just the numeric value; % need not be written.

molecule | value_units | growth
CC(=O)c1cc2c(N)c(C(=O)Nc3cccc(Cl)c3)sc2nc1C | % | 84.1
COc1ccc(-c2nnc(NC(=O)CN3CCN(c4cc5c(cc4F)c(=O)c(C(=O)O)cn5C4CC4)CC3)s2)cc1OC | % | 98.2
CCCCCCCC(=O)SCC/C=C/[C@@H]1CC(=O)NCc2nc(cs2)C2=N[C@@](C)(CS2)C(=O)N[C@@H](C(C)C)C(=O)N1 | % | 8.82

What does the record list as growth for O=c1cc(Cl)[nH]c(=O)[nH]1 ?
105

Same for CCOc1ccc(-n2c(-c3cc(OC)c(OC)c(OC)c3)nnc2-c2ccc(OC)cc2N)cc1
37.8

Consider next the molecule CCC(N)(C(=O)O)c1ccc(F)cc1 (stereo not drawn) in the same way.
105

Next up: O=C(Nc1cccc(-n2ccc3c(NC(=O)c4ccccc4)nccc32)c1)Nc1cc(C(F)(F)F)cc(C(F)(F)F)c1
-15.2

And for COc1ccc(-c2nnc(SCC(=O)Nc3ccc(C(=O)/C=C/c4ccc(OC)c(OC)c4)cc3)o2)cc1 ?
84.5

Entry COC1=C(OC)C(=O)C=CC1=O please
104

Again, but for O=C(Nc1ccc(F)cc1)Nc1ccc(Cl)c([N+](=O)[O-])c1
12.4

----------
The entries below come with measured growth values attached.
Test system: HOP-62 NSCLC
Experiment: NCI-60 one-dose screen, 48 h (100 = growth as untreated, 0 = no growth, -100 = all killed)
Conditions: 10 µM unless noted
The panel holds about 83,000 compounds, 20% with a hit somewhere; the sample as a whole holds those more often.
Answer with a number only, understood to be in %.

Sample records with growth:
compound | growth (%)
O=c1[nH]ccc2nc(N3CCC(O)CC3)nc(Nc3cccc(C(F)(F)F)c3)c12 | 92.9
c1ccc2nc(Cn3cc[n+](Cc4ccc5ccccc5n4)c3)ccc2c1 | 82.5
O=C(N/N=C/c1ccccc1O)c1ccccc1O | 42.1

Requested read-out: growth. Entry: CC1(C)N=C(N)N=C(N)N1c1ccc(F)c(C(F)(F)F)c1
21.7

Quick one: COc1ccc(-c2nn(-c3cccc(Cl)c3)cc2-c2cc(-c3ccc(Br)cc3)[nH]c(=O)c2C#N)cc1
93.8

Entry to check: CN(C)CCCOc1c(Br)cc(/C=C/C(=O)N(C)CCc2cc(Br)c(OCCCN(C)C)c(Br)c2)cc1Br
82.3

Field entry: Cc1ccc2c(C3C(C#N)=C(N)Oc4cc5ccccc5cc43)cc(=O)oc2c1 (stereo not given)
30.1

Same thing, different compound: Nc1ncnc2c1ccn2-c1cccc(NC(=O)c2cccc(C(F)(F)F)c2)c1
91.7

NN=C(c1ccc(Cl)cc1)c1ccc(Cl)cc1 ?
108

Lookup COc1cc(/C=C/C(=O)c2c(C)[n+]([O-])c3ccccc3[n+]2[O-])ccc1O
125

----------
Tested on: UACC-257 melanoma
Assay: NCI-60 one-dose screen, 48 h (100 = growth as untreated, 0 = no growth, -100 = all killed)
Settings: 10 µM unless noted
This is part of a sample that, as a whole, favours compounds with a hit. Of some 83,000 tested, about 20% had one in any assay.
Measured growth, listed per entry for reference.
Just the number please, in %, no unit attached.

Please review the entries below; each comes with its answer.
compound | value_units | growth
COc1ccc2c(c1)OC(N)=C(C#N)C2c1ccc(F)cc1 (centres undefined) | % | 51.7
C[C@H]1C=C(C[C@@H](O)CC#CC#CCCCCC[C@@H](O)[C@H]2CCC(=O)O2)C(=O)O1 | % | 91.8
CCOC(=O)C1CN(Cc2ccccc2)C(=O)C1=O (centres undefined) | % | 104

Can you look up growth on UACC-257 melanoma for O[C@@H]1CCO[C@H](c2ccc3ccccc3c2)C1 ?
98.5

Follow-up item: N#Cc1c2c(c(N)[nH]c1=O)C(=O)NC2(O)c1ccccc1 (centres undefined)
96.7

And for O=C(O)c1ccc(-n2cc(/C=N/Nc3ccc(Cl)cc3)c(-c3ccc(F)c(F)c3)n2)cc1 ?
99.4

Can you handle C=C1C(=O)O[C@H]2[C@H]1CC/C(COC(=O)c1ccc(Cl)nc1)=C\CC[C@@]1(C)O[C@@H]21 next?
34.4

Another: CCCCCCCCCCCCCCCC(=O)NS(=O)(=O)OC[C@H]1O[C@@H](n2cnc3c(N)ncnc32)[C@H](O)[C@@H]1O
-20.7

Same question for Cc1cn([C@]2(CF)O[C@H](CO)C2C)c(=O)[nH]c1=O (some centres undefined) please.
103

Same read-out for COC1OCC(OS(=O)(=O)c2ccc(C)cc2)C(OC(=O)c2ccccc2)C1OC(=O)c1ccccc1 (centres undefined) ?
71

Lookup O=C1CCC(c2c(O)cc(O)c3c(=O)c(O)c(-c4ccc(O)c(O)c4)oc23)N1 (centres undefined)
86.1

Another compound to check: CC1CCc2cc(F)cc3c(=O)c(C(=O)O)cn1c23 (centres undefined)
101

Now give it for COc1ccc(SC2c3ccc(O)cc3Oc3nc(N)c(C#N)c(N)c32)cc1 (centres undefined) too.
106
